RUN DESCRIPTION: in vivo
Parameters: species or system Male Sprague-Dawley rats
CONDITION: male, Sprague-Dawley, rat, oral, 100 mg/kg diosgenin or equivalent, mean ± SD, n = 6, read-out: CLz/F (converted)
MEASURED PROPERTY: CL/F (mL/min/kg)
Dear colleague, please return just the value in mL/min/kg, with no unit written.

Q: So what does the record say about CL/F for C[C@@H]1CC[C@@]2(OC1)O[C@H]1C[C@H]3[C@@H]4CC=C5C[C@@H](O)CC[C@]5(C)[C@H]4CC[C@]3(C)[C@H]1[C@@H]2C ?
Result: 207

----------
RUN DESCRIPTION: in vivo
Set-up: species or system Male Sprague-Dawley rats
CONDITION: male, Sprague-Dawley, rat, oral, 100 mg/kg diosgenin or equivalent, mean ± SD, n = 6, read-out: t1/2z (converted)
MEASURED PROPERTY: half-life (h)
Dear colleague, please return just the value in h, with no unit written.

Q: So what does the record say about half-life for C[C@@H]1CC[C@@]2(OC1)O[C@H]1C[C@H]3[C@@H]4CC=C5C[C@@H](O)CC[C@]5(C)[C@H]4CC[C@]3(C)[C@H]1[C@@H]2C ?
Result: 12.3

----------
RUN DESCRIPTION: in vivo
Set-up: species or system Male Sprague-Dawley rats
CONDITION: male, Sprague-Dawley, rat, po, 100 mg/kg
Method: Liquid chromatography was performed using a UPLC system (Waters Corp., Milford, MA, USA) interfaced to a Q-Trap 5500 triple-quadruple mass spectrometer (AB SCIEX, Beijing, China) equipped with an electrospray ionization (ESI) source, as previously described. The isolation was performed on a Waters ACQUITY UPLC BEH C18 rapid resolution high definition column (2.1 × 50 mm, 1.7 μm) at 35°C. The temperature of the UPLC autosampler was 4°C. […]
MEASURED PROPERTY: Cmax (ng/mL)
Dear colleague, please return just the value in ng/mL, with no unit written.

Q: So what does the record say about Cmax for C[C@@H]1CC[C@@]2(OC1)O[C@H]1C[C@H]3[C@@H]4CC=C5C[C@@H](O)CC[C@]5(C)[C@H]4CC[C@]3(C)[C@H]1[C@@H]2C ?
Result: 480

----------
RUN DESCRIPTION: in vivo
Design: species or system Male Sprague-Dawley rats
CONDITION: male, Sprague-Dawley, rat, po, 100 mg/kg
MEASURED PROPERTY: Tmax (h)
Dear colleague, please return just the value in h, with no unit written.

Q: So what does the record say about Tmax for C[C@@H]1CC[C@@]2(OC1)O[C@H]1C[C@H]3[C@@H]4CC=C5C[C@@H](O)CC[C@]5(C)[C@H]4CC[C@]3(C)[C@H]1[C@@H]2C [Diosgenin] ?
Result: 8.73

----------
RUN DESCRIPTION: in vivo
Set-up: species or system Male Sprague-Dawley rats
CONDITION: male, Sprague-Dawley, rat, po, 100 mg/kg
MEASURED PROPERTY: MRT last (h)
Dear colleague, please return just the value in h, with no unit written.

Q: So what does the record say about MRT last for C[C@@H]1CC[C@@]2(OC1)O[C@H]1C[C@H]3[C@@H]4CC=C5C[C@@H](O)CC[C@]5(C)[C@H]4CC[C@]3(C)[C@H]1[C@@H]2C [Diosgenin] ?
Result: 22.8

----------
RUN DESCRIPTION: in vivo
Design: species or system Male Sprague-Dawley rats
CONDITION: male, Sprague-Dawley, rat, oral, 100 mg/kg diosgenin or equivalent, mean ± SD, n = 6, read-out: Vz/F
MEASURED PROPERTY: Vd/F
Could you write the number and then its unit?

Q: So what does the record say about Vd/F for C[C@@H]1CC[C@@]2(OC1)O[C@H]1C[C@H]3[C@@H]4CC=C5C[C@@H](O)CC[C@]5(C)[C@H]4CC[C@]3(C)[C@H]1[C@@H]2C ?
Result: 231 L/kg
